A compilation of pIC50 values for Insulin-like growth factor 1 receptor (Homo sapiens, UniProt P08069) from the published literature.
pIC50: −log10 of the molar value.
Measurement name: pIC50

> print(dat)
                                   compound  relation.qualifier  experimental.value
1  COc1cc2nc(-c3ccc(Cl)cc3)cc(OCCCn3ccnc3)c2cc1OC                   =                5.66
2  COc1cc2nc(-c3ccc(Cl)cc3)cc(OCCCNCC3CCCO3)c2cc1OC (centres unmarked)                   =                5.80
3  COc1cc(F)cc(-c2ccc3c(NC(=O)c4ccc(N5CCC(N(C)C)CC5)cc4)n[nH]c3c2)c1                   <                6.00
4  COc1cc2nc(-c3ccc(-c4cccs4)cc3)cc(OCCCN3CCN(C)CC3)c2cc1OC                   =                5.41
5  C=CC(=O)Nc1cccc(Nc2nc(Nc3ccc(N4CCN(C)CC4)nc3OC)ncc2C(F)(F)F)c1                   =                6.90
